- Assay name: Phase 1a study: pharmacokinetics after oral BID dosing in subjects with advanced solid tumors
- Type: in vivo, human
- Condition label: human, in vivo, po, 200 mg, 200 mg single oral dose, Cycle 1 Day 1, geometric mean, N = 5; read-out: Vz/F
Structures can show the parent of a compound that is named as a salt.
Reported endpoint: Vd/F

So, Cc1cc(NC(=O)[C@H](O)c2cc(F)cc(F)c2)ccc1-c1cnc(N)c(C(=O)NC(C)C)c1 [Form A of the hemi-fumarate salt] ? Its Vd/F was 331 L

----------
- Assay name: Phase 1a study: pharmacokinetics after oral BID dosing in subjects with advanced solid tumors
- Format: in vivo, human
- Condition label: human, in vivo, po, 25 mg, 25 mg twice daily oral, Cycle 1 Day 21, median, N = 3
Where a name gives a salt, the structure may show the parent alone.
Reported endpoint: Tmax
Could you kindly put the unit after your number?

So, Cc1cc(NC(=O)[C@H](O)c2cc(F)cc(F)c2)ccc1-c1cnc(N)c(C(=O)NC(C)C)c1 [Form A of the hemi-fumarate salt] ? Its Tmax was 2 h

----------
- Assay name: Phase 1a study: pharmacokinetics after oral BID dosing in subjects with advanced solid tumors
- Format: in vivo, human
- Condition label: human, in vivo, po, 400 mg, 400 mg twice daily oral, Cycle 1 Day 21, N = 2; interpret with caution, terminal elimination phase not well captured; read-out: t1/2 (converted)
Where a name gives a salt, the structure may show the parent alone.
Reported endpoint: half-life (h)
Write down the numeric answer in h and omit the unit.

So, Cc1cc(NC(=O)[C@H](O)c2cc(F)cc(F)c2)ccc1-c1cnc(N)c(C(=O)NC(C)C)c1 [Form A of the hemi-fumarate salt] ? Its half-life was 10.8

----------
- Assay name: Phase 1a study: pharmacokinetics after oral BID dosing in subjects with advanced solid tumors
- Assay type: in vivo, human
- Condition label: human, in vivo, po, 25 mg, 25 mg single oral dose, Cycle 1 Day 1, geometric mean, N = 3; read-out: AUC0-last
Structures can show the parent of a compound that is named as a salt.
Reported endpoint: AUC(0-t)
Could you kindly put the unit after your number?

So, Cc1cc(NC(=O)[C@H](O)c2cc(F)cc(F)c2)ccc1-c1cnc(N)c(C(=O)NC(C)C)c1 [Form A of the hemi-fumarate salt] ? Its AUC(0-t) was 850 ng·h/mL

----------
- Assay name: Solubility of mono-fumarate Form A estimated by solvent addition, visual assessment
- Format: physicochemical
- Condition label: acetone, organic solvent or mixture, thermodynamic from solid, Acetone; read-out: Solubility
- Text: The solubility of Form A of the mono-fumarate salt of the compound of formula (I) was estimated using solvent addition method via visual assessment of the samples.
Where a name gives a salt, the structure may show the parent alone.
Reported endpoint: solubility

So, Cc1cc(NC(=O)[C@H](O)c2cc(F)cc(F)c2)ccc1-c1cnc(N)c(C(=O)NC(C)C)c1 [Form A of the mono-fumarate salt] ? Its solubility was > 13.4 mg/mL

----------
- Assay name: Solubility study of Form A of the compound of formula (I) in solvents (aliquot addition, visual)
- Format: physicochemical
- Condition label: organic solvent or mixture, thermodynamic from solid; chloroform, room temperature; read-out: Approximate Solubility
Reported endpoint: solubility

So, Cc1cc(NC(=O)[C@H](O)c2cc(F)cc(F)c2)ccc1-c1cnc(N)c(C(=O)NC(C)C)c1 [Form A of the compound of formula (I)] ? Its solubility was < 3000 µg/mL
